molecular target: UniProtKB P06276; assay: Inhibition of human serum BChE using butyrylthiocholine iodide as substrate preincubated for 20 mins followed by substrate addition measured after 5 mins by Ellman's method
Sequence (P06276 whole entry): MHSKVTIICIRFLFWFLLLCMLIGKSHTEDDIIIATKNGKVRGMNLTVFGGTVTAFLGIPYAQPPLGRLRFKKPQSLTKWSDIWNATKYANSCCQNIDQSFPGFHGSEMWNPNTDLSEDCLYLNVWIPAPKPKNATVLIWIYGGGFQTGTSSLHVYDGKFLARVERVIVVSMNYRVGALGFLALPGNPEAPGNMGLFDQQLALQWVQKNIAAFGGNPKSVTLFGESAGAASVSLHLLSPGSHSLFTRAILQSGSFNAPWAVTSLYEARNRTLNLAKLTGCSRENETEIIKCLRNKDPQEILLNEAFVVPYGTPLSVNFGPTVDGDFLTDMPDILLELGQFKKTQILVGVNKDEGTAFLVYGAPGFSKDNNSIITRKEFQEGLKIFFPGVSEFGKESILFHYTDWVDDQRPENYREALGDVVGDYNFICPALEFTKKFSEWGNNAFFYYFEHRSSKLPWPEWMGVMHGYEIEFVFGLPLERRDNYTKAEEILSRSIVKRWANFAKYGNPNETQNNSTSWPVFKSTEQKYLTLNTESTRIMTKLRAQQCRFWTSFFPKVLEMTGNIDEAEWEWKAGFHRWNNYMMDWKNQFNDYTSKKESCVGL
Hi there, I'd appreciate the recorded IC50 for every entry that follows.
Numbers only, in nM.

// for each compound below, give its IC50
1. CCNCc1ccc2nc(-c3cccnc3)c3c(c2c1)NCCC3
2. CCNC(=O)c1ccc2nc(-c3ccc(Cl)cc3)c3c(c2c1)NCCC3
3. CCNCc1ccc2nc(-c3ccc(Cl)cc3)c3c(c2c1)NCCC3

Data returned:
2590
920
1370

----------
biological target: Acetylcholinesterase (Homo sapiens, UniProt P22303); experiment: Mixed-type inhibition of human recombinant AChE using acetylthiocholine iodide as substrate assessed as enzyme-inhibitor complex by Lineweaver-Burk plot analysis
Sequence (P22303 whole entry): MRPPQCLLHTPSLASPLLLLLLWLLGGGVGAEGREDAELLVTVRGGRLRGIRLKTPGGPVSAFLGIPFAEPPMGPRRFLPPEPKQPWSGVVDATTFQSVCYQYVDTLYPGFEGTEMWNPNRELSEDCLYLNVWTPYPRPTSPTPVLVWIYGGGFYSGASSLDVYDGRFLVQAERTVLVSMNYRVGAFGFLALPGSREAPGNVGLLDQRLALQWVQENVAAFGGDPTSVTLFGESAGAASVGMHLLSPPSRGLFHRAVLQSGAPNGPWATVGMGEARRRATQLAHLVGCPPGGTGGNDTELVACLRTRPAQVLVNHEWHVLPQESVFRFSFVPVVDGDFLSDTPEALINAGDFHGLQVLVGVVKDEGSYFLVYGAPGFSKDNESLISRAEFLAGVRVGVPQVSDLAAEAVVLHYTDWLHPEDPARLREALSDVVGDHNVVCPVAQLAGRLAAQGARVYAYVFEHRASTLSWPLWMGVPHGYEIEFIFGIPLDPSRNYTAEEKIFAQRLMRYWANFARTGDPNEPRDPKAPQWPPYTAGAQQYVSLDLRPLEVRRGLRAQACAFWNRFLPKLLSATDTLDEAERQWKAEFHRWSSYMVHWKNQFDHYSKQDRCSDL
endpoint: Ki (nM)
Answers are plain numbers, in nM.

[
  {
    "querySmiles": "CCNC(=O)c1ccc2nc(-c3ccc(Cl)cc3)c3c(c2c1)NCCC3",
    "unitSpec": "nM",
    "value": 65
  }
]

Ki recorded for this molecule, CCNC(=O)c1ccc2nc(-c3ccc(Cl)cc3)c3c(c2c1)N(Cc1ccccc1)CCC3 , is 785

----------
molecular target: Acetylcholinesterase (Electrophorus electricus, UniProt O42275)
Sequence (O42275 whole entry): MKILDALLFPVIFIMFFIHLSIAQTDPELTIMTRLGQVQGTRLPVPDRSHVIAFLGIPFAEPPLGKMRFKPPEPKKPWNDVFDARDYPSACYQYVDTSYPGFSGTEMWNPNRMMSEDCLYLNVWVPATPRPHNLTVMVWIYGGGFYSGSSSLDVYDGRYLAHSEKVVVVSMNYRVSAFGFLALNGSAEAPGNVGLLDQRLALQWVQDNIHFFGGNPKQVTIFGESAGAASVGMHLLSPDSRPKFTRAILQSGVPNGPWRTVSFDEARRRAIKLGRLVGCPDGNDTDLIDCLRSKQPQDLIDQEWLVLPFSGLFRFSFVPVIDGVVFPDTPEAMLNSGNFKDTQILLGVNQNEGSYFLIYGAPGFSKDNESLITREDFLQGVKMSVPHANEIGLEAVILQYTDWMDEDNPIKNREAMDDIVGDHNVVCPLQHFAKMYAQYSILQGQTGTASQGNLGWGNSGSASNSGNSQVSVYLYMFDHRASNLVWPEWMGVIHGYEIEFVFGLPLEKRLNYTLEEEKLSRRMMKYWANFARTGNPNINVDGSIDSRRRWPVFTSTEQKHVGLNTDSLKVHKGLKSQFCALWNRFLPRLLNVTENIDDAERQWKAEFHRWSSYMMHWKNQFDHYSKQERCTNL
endpoint: IC50 (µM)
One number for each entry, in µM.

Below: 3 compounds and their reported IC50.
[
  {
    "querySmiles": "CCOC(=O)c1ccc2nc(-c3ccc(Cl)cc3)c3c(c2c1)NCCC3",
    "unitSpec": "µM",
    "IC50": 0.281
  },
  {
    "querySmiles": "CCOC(=O)c1ccc2nc(-c3ccc(C(=O)OC)cc3)c3c(c2c1)N(Cc1ccccc1)CCC3",
    "unitSpec": "µM",
    "IC50": 6.62
  },
  {
    "querySmiles": "CCNCc1ccc2nc(-c3ccc(Cl)cc3)c3c(c2c1)NCCC3",
    "unitSpec": "µM",
    "IC50": 0.532
  }
]

// for each compound below, give its IC50
1. CCOC(=O)c1ccc2nc(-c3ccc(C(=O)OC)cc3)c3c(c2c1)N(Cc1ccccc1)C(=O)CC3
2. CCOC(=O)c1ccc2nc(-c3cccnc3)c3c(c2c1)N(Cc1ccccc1)CCC3
3. CCNC(=O)c1ccc2nc(-c3ccc(Cl)cc3)c3c(c2c1)NCCC3
4. CCNC(=O)c1ccc2nc(-c3ccc(Cl)cc3)c3c(c2c1)N(Cc1ccccc1)CCC3

Data returned:
[13.6, 1.97, 0.046, 5.48]

----------
target: Acetylcholinesterase (Electrophorus electricus)
// assign condition met if IC50 falls strictly below 2000 nM, else condition not met (ties count as condition not met)

See these solved cases before continuing.
[
  {
    "querySmiles": "CCOC(=O)c1ccc2nc(-c3ccc(Cl)cc3)c3c(c2c1)N(Cc1ccccc1)C(=O)CC3",
    "studySystem": "Acetylcholinesterase (Electrophorus electricus)",
    "labelValue": "condition not met"
  },
  {
    "querySmiles": "CCNCc1ccc2nc(-c3ccc(Cl)cc3)c3c(c2c1)N(Cc1ccccc1)CCC3",
    "studySystem": "Acetylcholinesterase (Electrophorus electricus)",
    "labelValue": "condition met"
  },
  {
    "querySmiles": "CCOC(=O)c1ccc2nc(-c3ccc(Cl)cc3)c3c(c2c1)N(Cc1ccccc1)CCC3",
    "studySystem": "Acetylcholinesterase (Electrophorus electricus)",
    "labelValue": "condition not met"
  },
  {
    "querySmiles": "CCOC(=O)c1ccc2nc(-c3cccnc3)c3c(c2c1)NCCC3",
    "studySystem": "Acetylcholinesterase (Electrophorus electricus)",
    "labelValue": "condition met"
  }
]

We next turn to a different molecule, shown below.
Data request: Hello, I'm reviewing records and need to know if IC50 of CCNCc1ccc2nc(-c3cccnc3)c3c(c2c1)NCCC3 is below 2000 nM. Could you check?
Data returned: condition not met

----------
Hi there, I'd appreciate the recorded inhibition for every entry that follows.
biological target: Acetylcholinesterase (Homo sapiens); assay: Inhibition of human recombinant AChE using acetylthiocholine iodide as substrate at 25 uM preincubated for 20 mins followed by substrate addition by Ellman's method relative to control
Give bare numbers, in %.

Below: 4 compounds and their reported inhibition.
[
  {
    "querySmiles": "CCOC(=O)c1ccc2nc(-c3ccc(C(=O)OC)cc3)c3c(c2c1)N(Cc1ccccc1)C(=O)CC3",
    "inhibition, %": 13.8
  },
  {
    "querySmiles": "CCOC(=O)c1ccc2nc(-c3ccc(Cl)cc3)c3c(c2c1)NCCC3",
    "inhibition, %": 17.8
  },
  {
    "querySmiles": "CCOC(=O)c1ccc2nc(-c3ccc(Cl)cc3)c3c(c2c1)N(Cc1ccccc1)CCC3",
    "inhibition, %": 10
  },
  {
    "querySmiles": "CCOC(=O)c1ccc2nc(-c3ccc(C(=O)OC)cc3)c3c(c2c1)N(Cc1ccccc1)CCC3",
    "inhibition, %": 15.7
  }
]

Please examine the following record next.
inhibition recorded for this compound, CCOC(=O)c1ccc2nc(-c3ccc(Cl)cc3)c3c(c2c1)N(Cc1ccc(OC)cc1)CCC3 , is 10.2

----------
test: in vitro; details: PAMPA
Description: Permeability of the compound by BBB-PAMPA
endpoint: Papp

Below: 3 molecules and their reported Papp.
[
  {
    "molecule": "CCOC(=O)c1ccc2nc(-c3cccnc3)c3c(c2c1)NCCC3",
    "Papp": "14.6 ×10⁻⁶ cm/s"
  },
  {
    "molecule": "CCn1cc(C(=O)O)c(=O)c2cc(F)c(N3CCNC(C)C3)c(F)c21 (stereo not given)",
    "Papp": "0.75 ×10⁻⁶ cm/s"
  },
  {
    "molecule": "CCOC(=O)c1ccc2nc(-c3ccc(C(=O)OC)cc3)c3c(c2c1)N(Cc1ccccc1)CCC3",
    "Papp": "9.5 ×10⁻⁶ cm/s"
  }
]

// for each molecule below, give its Papp
1. CCNCc1ccc2nc(-c3cccnc3)c3c(c2c1)NCCC3
2. CCOC(=O)c1ccc2nc(-c3ccc(Cl)cc3)c3c(c2c1)NCCC3
3. CCOC(=O)c1ccc2nc(-c3ccc(C(=O)OC)cc3)c3c(c2c1)N(Cc1ccccc1)C(=O)CC3
4. CCOC(=O)c1ccc2nc(-c3cccnc3)c3c(c2c1)N(Cc1ccccc1)C(=O)CC3
5. CCNC(=O)c1ccc2nc(-c3ccc(Cl)cc3)c3c(c2c1)N(Cc1ccccc1)CCC3

Data returned:
["2.4 ×10⁻⁶ cm/s", "9.7 ×10⁻⁶ cm/s", "16.8 ×10⁻⁶ cm/s", "12.2 ×10⁻⁶ cm/s", "7.7 ×10⁻⁶ cm/s"]

// for each molecule below, give its Papp
1. CCOC(=O)c1ccc2nc(-c3ccc(Cl)cc3)c3c(c2c1)N(Cc1ccccc1)C(=O)CC3
2. CCNC(=O)c1ccc2nc(-c3ccc(Cl)cc3)c3c(c2c1)NCCC3

Data returned:
1: 13.3 ×10⁻⁶ cm/s; 2: 22.9 ×10⁻⁶ cm/s

----------
molecular target: UniProt P06276; test: Inhibition of human serum BChE using butyrylthiocholine iodide as substrate at 30 uM preincubated for 20 mins followed by substrate addition measured after 5 mins by Ellman's method relative to control
# if value of inhibition reaches 8%, tag True; if it stays below, tag False

[
  {
    "querySmiles": "CCOC(=O)c1ccc2nc(-c3ccc(C(=O)OC)cc3)c3c(c2c1)N(Cc1ccccc1)C(=O)CC3",
    "labelValue": "False"
  },
  {
    "querySmiles": "CCOC(=O)c1ccc2nc(-c3ccc(Cl)cc3)c3c(c2c1)N(Cc1ccc(OC)cc1)CCC3",
    "labelValue": "True"
  }
]

Data request: Does the reported inhibition for CCOC(=O)c1ccc2nc(-c3ccc(Cl)cc3)c3c(c2c1)N(Cc1ccccc1)C(=O)CC3 fall at or above the 8% mark?
Data returned: True

Data request: Does the reported inhibition for CCNC(=O)c1ccc2nc(-c3ccc(Cl)cc3)c3c(c2c1)N(Cc1ccccc1)CCC3 fall at or above the 8% mark?
Data returned: True

Data request: Does the reported inhibition for CCOC(=O)c1ccc2nc(-c3cccnc3)c3c(c2c1)NCCC3 fall at or above the 8% mark?
Data returned: True

Data request: Does the reported inhibition for CCOC(=O)c1ccc2nc(-c3ccc(Cl)cc3)c3c(c2c1)N(Cc1ccccc1)CCC3 fall at or above the 8% mark?
Data returned: True

----------
Hi there, I'd appreciate the recorded pIC50 for every entry that follows.
biological target: Acetylcholinesterase (Homo sapiens, UniProt P22303); assay: Inhibition of human recombinant AChE using acetylthiocholine iodide as substrate preincubated for 20 mins followed by substrate addition by Ellman's method
One number for each entry, as −log10 of the molar value.

[
  {
    "querySmiles": "CCNC(=O)c1ccc2nc(-c3ccc(Cl)cc3)c3c(c2c1)NCCC3",
    "studySystem": "Acetylcholinesterase (Homo sapiens, UniProt P22303)",
    "endpoint": "pIC50",
    "value": 7.19
  },
  {
    "querySmiles": "CCOC(=O)c1ccc2nc(-c3cccnc3)c3c(c2c1)N(Cc1ccccc1)C(=O)CC3",
    "studySystem": "Acetylcholinesterase (Homo sapiens, UniProt P22303)",
    "endpoint": "pIC50",
    "value": 4.89
  },
  {
    "querySmiles": "CCOC(=O)c1ccc2nc(-c3cccnc3)c3c(c2c1)N(Cc1ccccc1)CCC3",
    "studySystem": "Acetylcholinesterase (Homo sapiens, UniProt P22303)",
    "endpoint": "pIC50",
    "value": 5.97
  }
]

Please examine the following record next.
pIC50 recorded for this compound, CCNC(=O)c1ccc2nc(-c3ccc(Cl)cc3)c3c(c2c1)N(Cc1ccccc1)CCC3 , is 6.10

src = ChEMBL document CHEMBL3120164
